- TARGET: Rap guanine nucleotide exchange factor 4 (Homo sapiens)
- ASSAY NAME: Confirmatory qHTS for antagonist of cAMP-regulated guanine nucleotide exchange factor 4 (EPAC2) (AID 1645885); further: nearly all actives have a fitted effect of over 25% in size
- CONDITIONS USED: EPAC2 Rap1B-BODIPY-GDP exchange fluorescence, biochemical; series mostly up to 12.7 µM
Results filed as inconclusive are left out. Active and inactive are the calls of the source. The call rests on the fitted dose curve; in most records, active means well fitted inhibition curve with a large enough effect; inconclusive means small, poorly fitted or top-dose-only effect; inactive means no such curve, though single readings can be large or run the other way.
// classify into active, inactive

Below, 3 molecules whose answers are already recorded.
MOLECULE	TARGET	CATEGORY LABEL
Cc1[nH]n(-c2ccccc2)c(=O)c1C(c1cc(Cl)ccc1O)c1c(C)[nH]n(-c2ccccc2)c1=O	Rap guanine nucleotide exchange factor 4 (Homo sapiens)	inactive
CNC(=O)NC(=O)C(NC1CCCc2ccccc21)c1ccccc1 (centres undefined)	Rap guanine nucleotide exchange factor 4 (Homo sapiens)	active
CC(=O)Nc1ccc(C=NNc2ccc(S(=O)(=O)Nc3ccccc3C(=O)O)cc2[N+](=O)[O-])cc1	Rap guanine nucleotide exchange factor 4 (Homo sapiens)	inactive

Req: What outcome does the record of this test show for O=C(O)CN1C(=O)/C(=C\c2cccc(OCc3ccccc3F)c2)SC1=S ?
Resp: active

Req: Write down the call the test reported for this molecule. Item: COc1cc2cc(CNc3ccc(C)cc3)c(=O)n(CC(=O)Nc3ccc(F)cc3F)c2cc1OC
Resp: inactive

Req: Tell me the recorded outcome of this test for CN(C)c1ccc(/C=C/c2nc3ccccc3c(=O)n2-c2ccc(C(=O)O)cc2)cc1 .
Resp: active

Req: Query: recorded result category for O=c1c2ccccc2[nH]c(=S)n1-c1cccc(S(=O)(=O)N2CCCC2)c1 in this test
Resp: inactive

Req: Give the logged outcome of this assay for the following molecule: CCCCCCc1ccc(N2C[C@H](Cc3ccccc3)[C@@H](CC(=O)Nc3ccccc3)C2=O)cc1
Resp: inactive

Req: Which outcome was entered for the molecule O=C(COc1ccccc1Cl)Nc1cccc(S(=O)(=O)NC2=NCCCCC2)c1 in this test?
Resp: inactive

----------
- System: HB3
- ASSAY NAME: qHTS profiling for inhibitors of Plasmodium falciparum proliferation (AID 504749);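 further: 0% = DMSO vehicle and full inhibition = artemisinin control; nearly all actives have a fitted effect of over 60% in size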
- CONDITIONS USED: P. falciparum in erythrocytes, SYBR Green DNA, 72 h; series mostly up to 12.8 µM
Results filed as inconclusive are left out. Active and inactive are the calls of the source. The call rests on the fitted dose curve; in most records, active means well fitted inhibition curve with a large enough effect; inconclusive means small, poorly fitted or top-dose-only effect; inactive means flat fitted curve, though single readings scatter.
MEASURED PARAMETER: outcome

Please review the following examples before continuing.
MOLECULE	outcome
NC[C@@H]1O[C@H](O[C@H]2[C@H](O)[C@H](O[C@@H]3O[C@H](CO)[C@@H](O)[C@H](N)[C@@H]3O)[C@@H](N)C[C@H]2N)[C@@H](O)[C@H](O)[C@@H]1O	inactive
C[C@]12CCC(=O)C=C1CCC1C2C(=O)C[C@]2(C)C1CC[C@]2(O)C(=O)CO (some centres undefined)	inactive
COc1ccccc1OC[C@H](O)CO	inactive
Cc1ccc2c(c1)c1c3n2CCN[C@H]3CCC1	inactive
C[C@@]12C=CC(=O)C=C1CCC1C3CC(O)[C@@](O)(C(=O)CO)[C@]3(C)CC(O)[C@]12F (some centres undefined)	inactive
CN1CC(=O)N=C1N	inactive
CCC(=O)[C@@]1(C)[C@H](C)C[C@@H]2[C@@H]3CCC4=CC(=O)C=C[C@@]4(C)[C@H]3[C@H](O)C[C@]21C	inactive
CC(=C(CCOP(=O)(O)O)SC(=O)c1ccccc1)N(C=O)Cc1cnc(C)nc1N	inactive

Now turn to the next molecule.
Req: Indicate the recorded outcome value for this molecule: Cc1onc(-c2ccccc2Cl)c1C(=O)N[C@H]1C(=O)N2[C@H]1SC(C)(C)[C@H]2C(=O)O
Resp: inactive

----------
- TARGET: Rap guanine nucleotide exchange factor 3 (Homo sapiens) (UniProt O95398)
- Sequence (O95398 whole entry, looked up): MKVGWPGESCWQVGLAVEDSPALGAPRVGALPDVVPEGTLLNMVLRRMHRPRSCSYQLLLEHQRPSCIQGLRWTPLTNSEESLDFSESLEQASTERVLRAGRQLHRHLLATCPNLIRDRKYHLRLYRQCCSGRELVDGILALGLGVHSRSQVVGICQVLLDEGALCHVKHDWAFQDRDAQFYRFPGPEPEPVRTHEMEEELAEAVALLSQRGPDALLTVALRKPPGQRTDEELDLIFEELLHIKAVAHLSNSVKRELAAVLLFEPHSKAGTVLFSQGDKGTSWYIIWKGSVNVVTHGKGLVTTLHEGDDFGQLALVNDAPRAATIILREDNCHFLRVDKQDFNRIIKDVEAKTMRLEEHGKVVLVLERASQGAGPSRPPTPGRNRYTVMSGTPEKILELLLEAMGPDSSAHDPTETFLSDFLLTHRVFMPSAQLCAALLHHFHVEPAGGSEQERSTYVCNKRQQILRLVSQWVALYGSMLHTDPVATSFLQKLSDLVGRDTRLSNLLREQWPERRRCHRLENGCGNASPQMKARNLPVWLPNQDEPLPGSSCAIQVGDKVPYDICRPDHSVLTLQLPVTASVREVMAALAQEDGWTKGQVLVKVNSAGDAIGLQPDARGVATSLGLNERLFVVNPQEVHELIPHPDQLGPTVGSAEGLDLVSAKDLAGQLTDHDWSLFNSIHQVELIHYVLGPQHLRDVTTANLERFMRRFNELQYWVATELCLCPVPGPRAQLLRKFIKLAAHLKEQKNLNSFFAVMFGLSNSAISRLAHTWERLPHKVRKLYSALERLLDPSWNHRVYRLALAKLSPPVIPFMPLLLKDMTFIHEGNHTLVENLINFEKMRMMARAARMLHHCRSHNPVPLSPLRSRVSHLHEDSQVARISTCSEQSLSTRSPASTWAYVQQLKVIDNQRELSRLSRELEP
- ASSAY NAME: Counterscreen qHTS for agonist of cAMP-regulated guanine nucleotide exchange factor 3 (EPAC1) (AID 1645889); further: % of control where 0% means no effect; nearly all actives have a fitted effect of over 40% in size
- CONDITIONS USED: EPAC1 Rap1B-BODIPY-GDP exchange, fluorescence; series mostly up to 154 µM
Results filed as inconclusive are left out. The source made the active and inactive calls. The call rests on the fitted dose curve; in most records, active means well fitted activation curve with a large enough effect; inconclusive means small, poorly fitted or top-dose-only effect, or another doubt; inactive means no such curve, though single readings can be large or run the other way.
MEASURED PARAMETER: activation

Sample answers from the record:
COMPOUND	MEASURED
CC(C)c1ccc(N(C(=O)c2csnn2)C(C(=O)NC(C)(C)C)c2cccnc2)cc1 (stereo not given)	inactive
COCCOC(=O)C(C#N)c1nc2ccccc2nc1N1CCN(Cc2ccccc2)CC1 (stereo not given)	38.2% [at 30.8 µM] (inactive)
Cc1ccc(/C=C/C(=O)Nc2ccc(S(=O)(=O)Nc3cc(C)nc(C)n3)cc2)cc1	inactive
O=c1[nH]c(/C=C/c2cccc([N+](=O)[O-])c2)c([N+](=O)[O-])c(=O)[nH]1	inactive

Pending compound:
Req: Respond only with activation recorded for COc1ccc(N2CCN(C(=O)c3noc4c3CCCCC4)CC2)cc1
Resp: inactive

----------
- TARGET: Rap guanine nucleotide exchange factor 3 (Homo sapiens)
- ASSAY NAME: Confirmatory qHTS for antagonist of cAMP-regulated guanine nucleotide exchange factor 3 (EPAC1) (AID 1645880); further: nearly all actives have a fitted effect of over 55% in size
- CONDITIONS USED: EPAC1 Rap1B-BODIPY-GDP exchange, fluorescence; series mostly up to 115 µM
Results filed as inconclusive are left out. Active and inactive are the calls of the source. Calls come from the whole dose curve; as a rule, active = well fitted inhibition curve with a large enough effect; inconclusive = small, poorly fitted or top-dose-only effect; inactive = no such curve, though single readings can be large or run the other way.
In this exercise, the only acceptable responses are active, inactive

For orientation, consider the following solved cases.
STRUCTURE	CATEGORY LABEL
CC(C)(CNC(=O)Cc1ccc(NS(=O)(=O)c2cccc(C(F)(F)F)c2)cc1)N1CCOCC1	inactive
COc1ccc(C2=NN(c3nc4ccccc4s3)C(=O)C2)cc1	active
O=C(COC(=O)/C=C/c1cccc(C(F)(F)F)c1)NC(=O)NC1CCCC1	inactive
COc1ccc(C(=O)NCC2(c3ccccc3)CCCC2)c(OC)c1	inactive
COc1cc2c(cc1OC)-c1cc(NC3CCCCC3)nc(=O)n1CC2	inactive
COC(=O)c1c(SC)nc2ccccc2c1OCc1ccc(Br)cc1	inactive
CNC[C@H]1Oc2ccc(NC(=O)Nc3ccccc3)cc2CC(=O)N([C@H](C)CO)C[C@H]1C	inactive
COc1cccc(-c2ccc(C#N)c(OC(=O)c3ccc(Cl)cc3)n2)c1	inactive

Req: Check the results log: what was the call for COC(=O)c1cc(CNC(=O)c2ccccn2)cc(NC(=O)c2ccccc2OC)c1 ?
Resp: inactive

Req: What classification did Cc1ccc(NC(=O)CN2C(=O)N/C(=C/c3ccccc3OCc3cccc(C(=O)O)c3)C2=O)cc1 end up with in this test?
Resp: active

----------
- TARGET: Rap guanine nucleotide exchange factor 4 (Homo sapiens) (UniProt Q8WZA2)
- Sequence (Q8WZA2 whole entry, looked up): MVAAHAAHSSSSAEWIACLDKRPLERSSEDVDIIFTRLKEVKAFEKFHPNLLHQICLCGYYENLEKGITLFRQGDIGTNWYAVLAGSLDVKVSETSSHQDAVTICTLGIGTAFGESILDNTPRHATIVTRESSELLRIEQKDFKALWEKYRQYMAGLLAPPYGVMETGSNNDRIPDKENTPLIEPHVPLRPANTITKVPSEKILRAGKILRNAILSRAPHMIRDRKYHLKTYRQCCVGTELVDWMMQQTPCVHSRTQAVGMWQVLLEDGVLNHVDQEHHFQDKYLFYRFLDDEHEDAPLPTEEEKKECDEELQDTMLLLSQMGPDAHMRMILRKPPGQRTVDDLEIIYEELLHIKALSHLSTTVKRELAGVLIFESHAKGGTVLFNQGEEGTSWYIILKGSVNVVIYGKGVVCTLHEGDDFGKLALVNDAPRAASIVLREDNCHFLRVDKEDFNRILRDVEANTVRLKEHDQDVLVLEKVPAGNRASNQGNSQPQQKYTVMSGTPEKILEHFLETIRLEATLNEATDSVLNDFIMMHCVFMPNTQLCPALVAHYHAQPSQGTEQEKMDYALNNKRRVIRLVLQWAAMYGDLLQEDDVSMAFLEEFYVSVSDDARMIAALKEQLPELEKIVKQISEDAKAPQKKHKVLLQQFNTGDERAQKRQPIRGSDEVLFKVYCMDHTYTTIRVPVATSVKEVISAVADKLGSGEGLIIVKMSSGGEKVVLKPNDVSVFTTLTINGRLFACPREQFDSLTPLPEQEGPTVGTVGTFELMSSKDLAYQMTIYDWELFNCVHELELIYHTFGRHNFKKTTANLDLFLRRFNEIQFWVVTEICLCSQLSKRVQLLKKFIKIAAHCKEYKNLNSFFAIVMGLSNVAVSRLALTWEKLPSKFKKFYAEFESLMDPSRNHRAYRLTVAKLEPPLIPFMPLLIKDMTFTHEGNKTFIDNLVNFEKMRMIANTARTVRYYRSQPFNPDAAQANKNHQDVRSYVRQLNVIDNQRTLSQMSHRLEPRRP
- ASSAY NAME: Confirmatory qHTS for antagonist of cAMP-regulated guanine nucleotide exchange factor 4 (EPAC2) (AID 1645885); further: nearly all actives have a fitted effect of over 25% in size
- CONDITIONS USED: EPAC2 Rap1B-BODIPY-GDP exchange fluorescence, biochemical; series mostly up to 12.7 µM
Records with an inconclusive call do not appear. Active and inactive are the calls of the source. The call rests on the fitted dose curve; in most records, active means well fitted inhibition curve with a large enough effect; inconclusive means small, poorly fitted or top-dose-only effect; inactive means no such curve, though single readings can be large or run the other way.
Entry note: the call must match one of active, inactive

Below are worked cases with known answers.
COMPOUND	TARGET	CATEGORY LABEL
CN1CCN(S(=O)(=O)c2ccc(Nc3ccc(F)cc3)nc2)CC1	Rap guanine nucleotide exchange factor 4 (Homo sapiens) (UniProt Q8WZA2)	inactive
CC(C)(C)[C@H](N)C(=O)N[C@H]1CCC2C3CC=C4C[C@@H](O)CC[C@]4(C)C3CC[C@@]21C (stereo partly drawn)	Rap guanine nucleotide exchange factor 4 (Homo sapiens) (UniProt Q8WZA2)	inactive
COc1ccc(N(C)C(=O)CC2(CC(=O)O)CCCCC2)cc1	Rap guanine nucleotide exchange factor 4 (Homo sapiens) (UniProt Q8WZA2)	inactive

Req: Test call, this compound: COc1ccc(C(=O)N2CCc3cc(OC)c(OC)cc3C2c2ccc(OC)c(OC)c2)cc1 (stereo not drawn)
Resp: inactive

Req: For Cc1ccccc1-c1cc(C(=O)NCc2ccc3c(c2)OCO3)n(CC2CC(c3cccnc3)=NO2)n1 (stereo not drawn) , what call appears in the results of this test?
Resp: inactive

Req: Outcome? COc1ccc(-n2ccn(Cc3ccccc3Cl)c(=O)c2=O)cc1OC
Resp: inactive

Req: I would be grateful if you could indicate the recorded call for CCN(CC)c1ccc(C(=O)OCC(=O)NCC2CCCO2)cc1 (stereo not drawn) .
Resp: inactive

Req: For this compound, state the assay outcome: N#Cc1cc(C(=O)c2cc(F)ccc2O)cn(-c2nccs2)c1=O
Resp: inactive

Req: Identify the outcome logged in this assay for the compound shown: Cc1c(C(=O)OCC(=O)N2CCCC2=O)oc2ccccc12
Resp: inactive

Req: Test call, this compound: O=C1C=CC(=O)c2c(O)c(N3CCN(CCOCCO)CC3)c(Br)c(O)c21
Resp: inactive

Req: Short answer needed: outcome of this test for CC(C)(C)c1ccc(-c2nc(SCCCOc3ccccc3)n3[nH]c(=O)cc3n2)cc1 ?
Resp: inactive

Req: # fetch the recorded call for Cn1cccc1-c1cc(C(=O)N/N=C/c2ccc(F)cc2)[nH]n1 here
Resp: inactive
